- Test system: human neutrophil adhesion to TNF-α stimulated human umbilical vein endothelial cells
- Assay overview: Modified method: inhibition of human neutrophil adhesion to TNF-α stimulated HUVEC (ECA), calcein-labeled neutrophils
- Assay type: cell-based
- Measurement parameters: footnote a, neutrophil adhesion to stimulated HUVEC, neutrophil label not given
Readout name: IC50 (µM)
Numbers only, in µM.

Data request: Given `COc1ccc2ccc(C(N)=O)c(OC(C)C)c2c1` , respond with its IC50.
Data returned: 11

Hey, just so you know, these numbers are from patent US5434188A.
